Assay: Stability of compound in PBS buffer assessed as compound degradation measured after 9 days at room temperature by HPLC analysis
Type: physicochemical
Details: time 9 day, read-out: Drug degradation
Where a SMILES comes first, the peptide text is derived from it. [ ]: non-standard residue; d: D form. PEG6 = NCCOCCOCCOCCOCCOCCOCCC(=O)O
readout-type: degraded at 216 h (%)
Kindly answer with a numeric value in %, unit omitted.

Field request: degraded at 216 h | item: CSCC[C@H](NC(=O)[C@H](Cc1ccc(O)cc1)NC(=O)[C@H](Cc1c[nH]c2ccccc12)NC(=O)CNC(=O)[C@H](CC(=O)O)NC(=O)[C@H](Cc1c[nH]c2ccccc12)NC(=O)[C@H](CCSC)NC(=O)[C@H](Cc1ccc(O)cc1)NC(=O)CCOCCOCCOCCOCCOCCOCCN)C(N)=O (H-[PEG6]YMWDGWYM-NH2)
7

---

Target: Alpha-cobratoxin (Naja kaouthia, UniProt P01391)
Sequence (P01391 whole entry): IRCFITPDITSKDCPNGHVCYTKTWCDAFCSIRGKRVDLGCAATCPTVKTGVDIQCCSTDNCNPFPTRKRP
Assay: Displacement of TAMRA-HAKTYMWDGWYMPTSH-NH2 from Naja kaouthia alpha-cobratoxin by fluorescence polarization assay
readout-type: IC50 (µM)
Kindly answer with a numeric value in µM, unit omitted.

Field request: IC50 | item: `Ac-HAKTYMWDGWYMPTSH-NH2`
29

---

Target: Alpha-cobratoxin (Naja kaouthia)
Test: Displacement of TAMRA-HAKTYMWDGWYMPTSH-NH2 from Naja kaouthia alpha-cobratoxin by fluorescence polarization assay
readout-type: Ki (nM)
Kindly answer with a numeric value in nM, unit omitted.

Field request: Ki | item: `Ac-HAKTYMWDGWYMPTSH-NH2`
2000
